Test: moDC CC50 (CellTiter Glo viability)
Type: cell-based, Human
Details: human, uninfected moDCs
Method: Human monocyte-derived dendritic cells (moDCs) were derived from CD14+ monocytes (AllCells) cultured in Human Mo-DC Differentiation medium containing GM-CSF and IL-4 (Miltenyi Biotec). […] After 48 hours, CellTiter Glo (Promega) was added and incubated for 10 minutes at room temp before reading on a luminometer. % viability curves were calculated against no compound and no cell control wells. CC50 values were determined using Prism Graphpad software.
Kindly supply the reported CC50 at 48 h values for the records listed here.
Give bare numbers, in µM.

compound	reading_unit	CC50 at 48 h
CCCCOC(=O)[C@H](C)N[P@](=O)(OC[C@@]1(CF)O[C@@H](c2ccc3c(N)ncnn23)[C@H](O)[C@@H]1O)Oc1ccccc1 (single isomer, unassigned)	µM	3.35
C[C@H](NP(=O)(OC[C@@]1(CF)O[C@@H](c2ccc3c(N)ncnn23)[C@H](O)[C@@H]1O)Oc1ccccc1)C(=O)OCCC(C)(C)C (some centres unmarked)	µM	4.78

Give CC50 at 48 h for each of the items listed below.
1. CC(C)COC(=O)[C@H](C)NP(=O)(OC[C@@]1(CF)O[C@@H](c2ccc3c(N)ncnn23)[C@H](O)[C@@H]1O)Oc1ccccc1 (some centres unmarked)
2. CC(C)OC(=O)[C@H](C)N[P@](=O)(OC[C@@]1(CF)O[C@@H](c2ccc3c(N)ncnn23)[C@H](OC(=O)C(C)C)[C@@H]1OC(=O)C(C)C)Oc1ccccc1
3. CC(C)C(=O)O[C@H]1[C@H](c2ccc3c(N)ncnn23)O[C@](CF)(COP(=O)(N[C@@H](C)C(=O)OC2CCCCC2)Oc2ccccc2)[C@H]1OC(=O)C(C)C (single isomer, unassigned)
4. CCCC(CCC)COC(=O)[C@H](C)NP(=O)(OC[C@@]1(CF)O[C@@H](c2ccc3c(N)ncnn23)[C@H](O)[C@@H]1O)Oc1ccccc1 (some centres unmarked)
5. COC(=O)[C@H](C)NP(=O)(OC[C@@]1(CF)O[C@@H](c2ccc3c(N)ncnn23)[C@H](OC(=O)C(C)C)[C@@H]1OC(=O)C(C)C)Oc1ccccc1 (single isomer, unassigned)
6. COC(C)(C)COC(=O)[C@H](C)NP(=O)(OC[C@@]1(CF)O[C@@H](c2ccc3c(N)ncnn23)[C@H](O)[C@@H]1O)Oc1ccccc1 (some centres unmarked)
7. CCCCCOC(=O)[C@H](C)NP(=O)(OC[C@@]1(CF)O[C@@H](c2ccc3c(N)ncnn23)[C@H](O)[C@@H]1O)Oc1ccccc1 (some centres unmarked)
8. C[C@H](NP(=O)(OC[C@@]1(CF)O[C@@H](c2ccc3c(N)ncnn23)[C@H](O)[C@@H]1O)Oc1ccccc1)C(=O)OC1CCC1 (some centres unmarked)

Data returned:
[3.57, 10.9, 5.6, 6.26, 16.1, 17.9, 7.04, 8.8]

Your task in this section: give CC50 at 48 h for each listed record.
1. CCCCCCOC(=O)[C@H](C)N[P@](=O)(OC[C@@]1(CF)O[C@@H](c2ccc3c(N)ncnn23)[C@H](O)[C@@H]1O)Oc1ccccc1 (single isomer, unassigned)
2. CCC(CC)COC(=O)[C@H](C)N[P@](=O)(OC[C@@]1(CF)O[C@@H](c2ccc3c(=N)n(COP(=O)(O)O)cnn23)[C@H](O)[C@@H]1O)Oc1ccccc1 (single isomer, unassigned)
3. CCC(C)(C)COC(=O)[C@H](C)NP(=O)(OC[C@@]1(CF)O[C@@H](c2ccc3c(N)ncnn23)[C@H](O)[C@@H]1O)Oc1ccccc1 (some centres unmarked)
4. CCCCOCCOC(=O)[C@H](C)NP(=O)(OC[C@@]1(CF)O[C@@H](c2ccc3c(N)ncnn23)[C@H](O)[C@@H]1O)Oc1ccccc1 (some centres unmarked)

Data returned:
1. 10.9
2. 7.66
3. 6.69
4. 5.33
